- target.system: T1, SHANK1, Q9Y566
- T1 sequence (Q9Y566 658-767, limits assumed, looked up): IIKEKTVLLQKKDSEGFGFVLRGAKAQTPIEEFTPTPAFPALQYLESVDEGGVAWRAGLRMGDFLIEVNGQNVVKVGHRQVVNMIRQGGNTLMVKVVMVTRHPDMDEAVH
- test.description: holdup assay
- Design: key: below the threshold = too weak to quantify, mostly under pKd 3.1 to 4
- experimental.context: plain residues with an end cap or a label only (N-terminal biotin on a linker: ado-ado)
Would you kindly list pKd for each of these binders?

Lab note: EEPEERHTEL [CES2, O00748] gave pKd of 4.55

Lab note: GFGEERESIL [KIDINS220, Q9ULH0] gave pKd of 3.87

Lab note: TETASVCTKV [SLC23A1, Q9UHI7] gave pKd of 4.42

Lab note: FVHPILQSAV [PRKCA, P17252] gave pKd of 4.34
